Listed below: MFI values for each entry.
- system_tested: monkey DLL3 on CHO-K1-cyno DLL3 cells (cynomolgus monkey)
- Sequence (chain, as listed by the source limits assumed): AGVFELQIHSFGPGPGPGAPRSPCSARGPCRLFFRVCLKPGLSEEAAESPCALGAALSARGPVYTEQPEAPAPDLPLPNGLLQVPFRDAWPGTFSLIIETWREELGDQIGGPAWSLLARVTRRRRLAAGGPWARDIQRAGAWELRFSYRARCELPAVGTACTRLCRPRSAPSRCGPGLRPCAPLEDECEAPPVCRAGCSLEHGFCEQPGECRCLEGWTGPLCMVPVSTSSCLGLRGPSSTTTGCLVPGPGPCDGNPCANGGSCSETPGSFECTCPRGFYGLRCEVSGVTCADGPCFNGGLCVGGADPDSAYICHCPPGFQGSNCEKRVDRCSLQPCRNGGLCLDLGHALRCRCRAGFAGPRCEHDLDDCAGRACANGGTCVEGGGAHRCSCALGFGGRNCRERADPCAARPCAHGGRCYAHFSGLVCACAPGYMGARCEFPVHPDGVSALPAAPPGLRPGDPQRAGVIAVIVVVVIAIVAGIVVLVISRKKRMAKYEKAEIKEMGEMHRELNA
- assay_protocol: FACS, CHO-K1-cyno DLL3 cells, 100 nM antibody
readout_type: MFI (MFI)

binder="Hab015VL5VH6a-hFc (scFv, part only; not given: scFv linker and human IgG1 Fc, V domains shown, not shown: another chain or arm of the molecule; a dimerising Fc or GST; small tags and cut ends) VL: NIQMTQSPSSLSASVGDRVTITCKASENVGTYVSWYQQKPGKSPKLLIYGASNRYTGVPSRFSGSGSGTDFTLTISSLQPEDFATYYCGQFYSFPSTFGGGTKVEIK VH: EVQLVESGGGLVKPGGSLRLSCAASGITFSNFWMNWVRQAPEKGLEWVGQIRLKSDDYATHYAESVKGRFTISREDSKNTVYLQMNSLKTEDTAVYYCTTGYYFDYWGQGTTVTVSS" readout_type=MFI reported_measurement=6850
binder="Hab015VL4VH6a-hFc (scFv, part only; not given: scFv linker and human IgG1 Fc, V domains shown, not shown: another chain or arm of the molecule; a dimerising Fc or GST; small tags and cut ends) VL: NIVLTQSPATLSLSPGERATLSCKASENVGTYVSWFQQKPGQSPRLLIYGASNRYTGIPARFSGSGSGTDFTLTISSLEPEDFAVYYCGQFYSFPSTFGGGTKVEIK VH: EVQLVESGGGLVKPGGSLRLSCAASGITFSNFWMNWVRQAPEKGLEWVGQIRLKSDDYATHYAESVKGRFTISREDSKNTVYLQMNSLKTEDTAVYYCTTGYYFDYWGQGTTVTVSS" readout_type=MFI reported_measurement=7480
binder="Hab009VL3aVH1-hFc (scFv, part only; not given: VL-VH linker and human IgG1 Fc, V domains shown, not shown: another chain or arm of the molecule; a dimerising Fc or GST; small tags and cut ends) VL: DIVMTQSPLSLPVTPGEPASISCRASQTISDYLHWYLQKSHQSPQLLIKYASQSISGVPDRFSGSGSGTDFTLKISRVEAEDVGVYYCQQGHSFPLTFGQGTKLEIK VH: EVQLVQSGAEVKKPGASVKVSCKASGYTFTSYWMHWVRQAPGQRLEWMGTIYPGNSDTRYNQKFKDRVTITADTSASTAYMELSSLRSEDTAVYYCTRSYDYGDLDYWGQGTTVTVSS" readout_type=MFI reported_measurement=29600
